target_of_assay: FXR (Homo sapiens (Human), UniProt Q96RI1)
Sequence (Q96RI1 262-486): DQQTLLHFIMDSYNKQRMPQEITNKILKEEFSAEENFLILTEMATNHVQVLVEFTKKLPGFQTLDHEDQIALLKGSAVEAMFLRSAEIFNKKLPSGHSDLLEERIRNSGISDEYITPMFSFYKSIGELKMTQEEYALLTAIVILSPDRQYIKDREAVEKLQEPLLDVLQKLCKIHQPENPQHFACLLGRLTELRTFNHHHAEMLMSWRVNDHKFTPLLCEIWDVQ
test_details: FXR EC50 (FXR agonist activity reported with each example)
Assay type: cell-based
measured_attribute: pEC50
Schema: pEC50 number; meaning minus log10 of the concentration expressed in molar units.

• O=C(O)c1cccc(OCC23CCC(OCc4c(-c5c(Cl)cncc5Cl)noc4C4CC4)(CC2)CC3)c1 = 7.48
• O=C(O)c1cc(C(F)(F)F)cc2nc(C34CCC(OCc5c(-c6c(Cl)cncc6Cl)noc5C5CC5)(CC3)CC4)ccc12 = 8.52
• CC(C)Oc1cc(OCC23CCC(OCc4c(-c5c(Cl)cncc5Cl)noc4C4CC4)(CC2)CC3)cnc1C(=O)O = 7.68

[ask] What does the data say about its pEC50? Entry: COc1nc(C(=O)O)cc2ccc(/C=C/C34CCC(OCc5c(-c6c(Cl)cncc6Cl)noc5C5CC5)(CC3)CC4)cc12
[reply] 7.38

[ask] Note, next up: O=C(O)c1cc(-c2noc(C34CCC(OCc5c(-c6c(Cl)cncc6Cl)noc5C5CC5)(CC3)CC4)n2)cc(OC2CC2)n1
[reply] 7.41

[ask] Note, next up: CC(C)Oc1cc(C(=O)O)nc2ccc(C#CC34CCC(OCc5c(-c6c(Cl)cncc6Cl)noc5C5CC5)(CC3)CC4)cc12
[reply] 7.70

[ask] Note, next up: Cc1nc(C23CCC(COCc4c(-c5c(Cl)cccc5Cl)noc4C4CC4)(CC2)CC3)sc1C(=O)O
[reply] 6.25

[ask] Note, next up: CN(C)c1cc(C(=O)O)nc2ccc(OCC34CCC(OCc5c(-c6c(Cl)cncc6Cl)noc5C5CC5)(CC3)CC4)cc12
[reply] 5.82
